// reported IL8-Secretion for each item listed
Target: T1, Human recombinant soluble TWEAK (human, UniProt O43508 99-249)
T1 sequence: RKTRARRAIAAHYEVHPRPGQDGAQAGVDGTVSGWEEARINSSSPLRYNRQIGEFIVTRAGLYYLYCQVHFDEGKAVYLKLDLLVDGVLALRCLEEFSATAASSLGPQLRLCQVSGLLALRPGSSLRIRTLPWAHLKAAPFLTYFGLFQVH
Assay: cell-based or functional assay
The response must be a number in ng/mL with no trailing unit.

Worked examples follow.
| binder | IL8-Secretion / ng/mL |
| --- | --- |
| Antibody 29 (antibody, V domains shown, Humanized variant of antibody 305; also called humanized 305 variant 305-LC2 / 305-HC8) VH: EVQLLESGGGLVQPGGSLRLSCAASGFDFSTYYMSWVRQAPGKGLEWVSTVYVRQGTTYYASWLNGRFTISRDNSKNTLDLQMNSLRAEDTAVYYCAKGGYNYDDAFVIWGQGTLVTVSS VL: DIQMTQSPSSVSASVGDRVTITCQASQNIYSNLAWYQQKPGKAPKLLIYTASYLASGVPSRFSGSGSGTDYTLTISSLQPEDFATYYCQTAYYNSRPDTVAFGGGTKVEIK | 78 |
| Antibody 31 (antibody, V domains shown, Humanized variant of antibody 305; also called humanized 305 variant 305-LC4 / 305-HC7) VH: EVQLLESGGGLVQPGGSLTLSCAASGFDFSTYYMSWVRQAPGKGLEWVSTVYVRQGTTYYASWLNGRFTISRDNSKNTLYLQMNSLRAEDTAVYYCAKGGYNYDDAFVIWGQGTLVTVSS VL: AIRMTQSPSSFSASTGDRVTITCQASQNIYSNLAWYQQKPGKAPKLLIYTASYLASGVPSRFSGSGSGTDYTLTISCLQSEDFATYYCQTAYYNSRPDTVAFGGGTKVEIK | 94 |
| Antibody 28 (antibody, V domains shown, Humanized variant of antibody 305; also called humanized 305 variant 305-LC2 / 305-HC7) VH: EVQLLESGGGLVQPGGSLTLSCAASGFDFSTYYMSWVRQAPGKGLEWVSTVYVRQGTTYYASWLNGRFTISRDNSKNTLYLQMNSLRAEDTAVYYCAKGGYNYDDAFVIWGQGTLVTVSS VL: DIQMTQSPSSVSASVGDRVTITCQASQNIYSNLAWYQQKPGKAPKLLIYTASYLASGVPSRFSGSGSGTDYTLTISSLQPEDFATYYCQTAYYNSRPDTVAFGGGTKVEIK | 165 |
| Antibody 27 (antibody, V domains shown, also called humanized 305 variant 305-LC2 / 305-HC4) VH: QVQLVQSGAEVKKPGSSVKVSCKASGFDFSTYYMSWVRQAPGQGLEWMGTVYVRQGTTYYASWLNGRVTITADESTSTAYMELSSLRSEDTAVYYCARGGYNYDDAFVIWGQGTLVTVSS VL: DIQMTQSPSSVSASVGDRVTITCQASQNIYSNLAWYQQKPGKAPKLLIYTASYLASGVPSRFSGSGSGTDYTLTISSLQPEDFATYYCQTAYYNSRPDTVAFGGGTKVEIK | 197 |

Now let's try a different one.
Name the recorded IL8-Secretion of the binder listed here: Antibody 30 (antibody, V domains shown, Humanized variant of antibody 305; also called humanized 305 variant 305-LC1 / 305-HC10) VH: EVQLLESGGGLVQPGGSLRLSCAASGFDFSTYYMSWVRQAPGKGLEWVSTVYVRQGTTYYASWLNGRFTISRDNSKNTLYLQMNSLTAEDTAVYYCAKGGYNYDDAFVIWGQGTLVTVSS VL: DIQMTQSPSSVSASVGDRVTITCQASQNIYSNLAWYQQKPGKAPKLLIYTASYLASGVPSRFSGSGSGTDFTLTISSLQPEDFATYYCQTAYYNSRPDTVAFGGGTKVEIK
207
